propertyName: melting point

Example entries and their recorded answers appear below.
>>> result("Cc1ccccc1NC(=O)N(C)C")
"139 to 143 °C"
>>> result("Cc1nc(-c2cc(Cl)ccc2Cl)n2c1nnc1cc(F)ccc12")
"186 to 190 °C"
>>> result("c1ccc(C2(Oc3ccccn3)CCNCC2)cc1")
"86 to 87 °C"
>>> result("CC(=O)Nc1c(C(=O)c2ccccc2)[nH]c2cc(C#N)ccc12")
"244 to 246 °C"
>>> result("COC(=O)Cc1cnc(-c2ccccc2)n1Cc1ccccc1")
"78 to 79 °C"

--- query ---
Record O=C(c1ccccc1)c1ccc2sc(NCCCO)nc2c1 . Reported melting point: 162 °C

---

Items are presented alongside their recorded melting point.

>>> result("COc1ccc2nc3c(c(Cl)c2c1)C(=O)c1ccccc1-3")
"232 to 234 °C"
>>> result("CNc1nc(CC(=O)Nc2cccc(C(F)(F)F)c2)cs1")
"153 to 155 °C"
>>> result("COc1cc(-c2csc(CN(C)C(=O)OC(C)(C)C)n2)cc(OC)c1OC(C)=O")
"135 to 137 °C"
>>> result("Cc1cccc2c1nc(-c1ccncc1)n2Cc1c(F)cccc1F")
"171 to 172 °C"
>>> result("CC(C)(C)OC(=O)NC[C@H]1C[C@H]1CON1C(=O)c2ccccc2C1=O (relative stereo)")
"96 to 97 °C"
>>> result("O=C(O)c1ccc(-c2cnc3c(O)ncnc3n2)cc1")
"> 300 °C"
>>> result("O=C1CC2CCc3ccc(F)cc3C2=NN1c1ccc(OCC2CO2)cc1 (stereo unspecified)")
"128 to 130 °C"
>>> result("CCCN(CCC)Cc1csc(-c2ncn3c2CN(C)C(=O)c2c-3ccc(F)c2Cl)n1")
"123 °C"

Recorded result, CCCC(NC(=O)C1CC(=O)c2cc(F)ccc2O1)c1ccccc1 (single isomer, unassigned; (+)) , melting point: 138 °C

melting point in this record for COc1ccc(Nc2nc(N)nc3c2ncn3C2CC(F)C(CO)O2)cc1 (stereo unspecified) : 190 to 191 °C

Measured melting point of CC(C)(C)OC(=O)N(CCOc1cccc2[nH]cc(Cl)c12)Cc1ccccc1 : 106 to 108 °C

Entry CC(C)C1(C)N=C(c2nc3occc3cc2C(=O)O)NC1=O (stereo unspecified) — recorded melting point = 237 to 244 °C

What the record says about CC(C)c1cccc(C(C)C)c1NC(=O)C(Cc1ccc(OCc2ccccc2)cc1)NC(=O)CC(C)(C)C (stereo unspecified) : melting point is 209 to 212 °C

The compound CC(C)CNC(=NC#N)Nc1cccnc1 showed melting point equal to 148 to 149 °C

Just so you know, measured melting point for COC(=O)CCn1c(=O)n2n(c1=O)C(C(=O)OC)C=CC2C(=O)OC (stereo unspecified) came out at 139 to 141 °C

Lab note: CN(C(=O)/C=C/CSc1nc(N)cc(Cl)n1)c1ccccc1 gave melting point of 152 to 154 °C

Measured melting point of CCCCCCCCCCCCOC(=O)CC(O)C(=O)OCCCCCCCCCCCC (stereo unspecified) : 27 to 30 °C

Entry Cn1nnc2ccc3nc(O)c(O)nc3c21 — recorded melting point = > 300 °C

// sample CCOc1ccc2cc(N3CC(COC)OC3=O)ccc2c1 (stereo unspecified) , its melting point was 130 °C

Notebook: CCc1ccc(Cl)c(S(=O)(=O)NC(=O)c2cn3cc(C(F)(F)F)cc(Cl)c3n2)c1 , melting point read as 214 to 215 °C

Measured melting point, Cc1oc(-c2ccccc2)nc1CCOc1ccc(CO)cc1 : 110 to 113 °C

Source: a melting point compilation (Tetko et al.; mined from patent text by program, amines drawn as free bases though some values may be those of a salt)
